- system-tested: hVEGF-A (human, UniProt P15692-4 27-191, limits assumed)
Assign IC50 (read off the curve) to each entry below.

Below, each entry is followed by its recorded IC50 (read off the curve) result.
GCNIMLPFWGCGRDFECMSDCICQYYQSCG (designed binder) [VEGF_CKP9.54.90.12]	30 nM
GCNIMLPFWGCGRDFECMEQCICQYYQSCG (designed binder) [VEGF_CKP9.54.90.67]	12 to 20 nM
GCNIMLPFWGCGRDFECMNQCICQYYQSCG (designed binder) [VEGF_CKP9.54.90.13]	20 nM

// IC50 (read off the curve) lookup, key: GCNIMLPFWGCGRDFECFYECICQYYQSCG (designed binder) [VEGF_CKP9.54.90.62]
20 nM

These measurements were taken from patent US20200325187A1.
